Tested on: Plasmodium berghei
measurement description: Antimalarial effect against trophozoite-induced Plasmodium berghei in mice (Mus musculus) at 640 mg/kg subcutaneous dose
Format: functional
Known MST of a selection of molecules
result type: MST (days)

>>> print(df.to_string())
                                    molecule  quantitative_result
 0  CCN(CC)CCNc1nc(Nc2ccc(Cl)c(Cl)c2)nc2cc([N+](=O)[O-])ccc12                 26.9
 1  CN1CCCC1CCNc1nc(Nc2ccc(C(F)(F)F)cc2)nc2ccccc12 (stereo unspecified)                 25.8
 2  CCN(CC)C1CCC(Nc2nc(Nc3ccc(Cl)c(Cl)c3)nc3ccc(Cl)cc23)CC1 (stereo unspecified)                 18.4
 3  CCN(CC)CCCC(C)Nc1nc(Nc2ccc(O)c(CN(CC)CC)c2)c2ccccc2n1 (stereo unspecified)                  3.1
 4  OC1CCCN(CCCNc2nc(Nc3ccc(I)cc3)nc3ccccc23)C1 (stereo unspecified)                 20.1
 5   Clc1ccc(Nc2nc(NCCN3CCCC3)c3ccccc3n2)cc1                 25.4
 6  CCN1CCC(CNc2nc(Nc3ccc(C(F)(F)F)cc3)c3ccccc3n2)CC1                 21.9
 7  CCN(CC)CCCC(C)Nc1nc(Nc2ccc([N+](=O)[O-])cc2)c2ccccc2n1 (stereo unspecified)                    5
 8  CCN(CC)CCNc1nc(Nc2ccc(Cl)c(Cl)c2)nc2cc(N)ccc12                 29.8
 9     c1ccc2c(NCCCN3CCCC3)nc(Nc3nccs3)nc2c1                  0.9
10  CN1CCCC1CCNc1nc(Nc2ccc(Cl)c(Cl)c2)nc2ccccc12 (stereo unspecified)                 29.8

* * *

Catalogue of compounds with associated MST
System: Plasmodium berghei
measurement description: Antimalarial effect against trophozoite-induced Plasmodium berghei in mice (Mus musculus) after 40 mg/kg subcutaneous dose
Type: functional
result type: MST (days)

                                    compound  unit_string  quantitative_result
 0  CCN(CC)CCNc1nc(Nc2cc(Cl)c(Cl)cc2Cl)nc2ccccc12         days                  0.4
 1  CCN(CC)CCCC(C)Nc1nc(Nc2ccc(C(F)(F)F)cc2)c2ccccc2n1 (stereo not drawn)         days                 -0.6
 2  CN1CCCC1CCNc1nc(Nc2ccc(Cl)c(Cl)c2)nc2ccccc12 (stereo not drawn)         days                    4
 3  FC(F)(F)c1ccc(Nc2nc(NCCCN3CCCCC3)nc3ccccc23)cc1         days                 -0.2
 4  CN(C)C1CCC(Nc2nc(Nc3cccc(Br)c3)c3ccccc3n2)CC1 (stereo not drawn)         days                 -0.1
 5  CCN1CCCC(Nc2nc(Nc3ccc(Cl)c(Cl)c3)nc3c(Cl)cc(Cl)cc23)C1 (stereo not drawn)         days                  0.3
 6  CN(C)c1ccc(Nc2nc(NC3CCC(N(C)C)CC3)nc3ccccc23)cc1 (stereo not drawn)         days                 -0.2
 7  CCN(CC)CCNc1nc(Nc2ccc(Cl)c(Cl)c2)nc2cc([N+](=O)[O-])ccc12         days                  0.3
 8  CCN1CCC(CNc2nc(Nc3cc(Cl)cc(Cl)c3)c3ccccc3n2)CC1         days                  0.5
 9  CCN(CC)CCNc1nc(Nc2ccc(OC)c(CN(CC)CC)c2)nc2ccccc12         days                  2.8
10  FC(F)(F)c1ccc(Nc2nc(NCCCN3CCCC3)c3cc(Cl)ccc3n2)cc1         days                  0.4
11  CCOc1ccc(Nc2nc(NCCN(CC)CC)c3cc(Cl)ccc3n2)cc1CN(CC)CC         days                  0.8
12  CN1CCCC1CCNc1nc(Nc2ccc(Cl)c(Cl)c2)c2ccccc2n1 (stereo not drawn)         days                  0.5
13  CCN(CC)C1CCC(Nc2nc(Nc3ccc(I)cc3)c3ccccc3n2)CC1 (stereo not drawn)         days                  0.5
14  OC1CCCN(CCCNc2nc(Nc3ccc(I)cc3)nc3ccccc23)C1 (stereo not drawn)         days                  1.2
15  CCN(CC)CCNc1nc(Nc2ccc(Cl)c(Cl)c2)nc2ccc(N)cc12         days                  3.8
16  CN(C)C1CCC(Nc2nc(Nc3cc(Cl)cc(Cl)c3)c3ccccc3n2)CC1 (stereo not drawn)         days                    0
17  OC1CCCN(CCCNc2nc(Nc3nc(-c4ccccc4)cs3)nc3ccccc23)C1 (stereo not drawn)         days                  0.2
18  CCN(CC)Cc1cc(Nc2nc(NCCN3CCCC3)c3ccccc3n2)ccc1O         days                  1.7
19  CCN1CCCC(Nc2nc(Nc3ccc(Cl)c(Cl)c3)nc3ccc(Cl)cc23)C1 (stereo not drawn)         days                  0.1
20  CN(C)C1CCC(Nc2nc(Nc3ccc(C(F)(F)F)cc3)c3ccccc3n2)CC1 (stereo not drawn)         days                  1.1
21  CCN1CCCC(Nc2nc(Nc3cc(Cl)cc(Cl)c3)nc3cc(Cl)ccc23)C1 (stereo not drawn)         days                  0.2
22          CC1(C)N=C(N)N=C(N)N1c1ccc(Cl)cc1         days                 13.4

* * *

# MST per entry
Test system: Plasmodium berghei
measurement description: Antimalarial effect against trophozoite-induced Plasmodium berghei in mice (Mus musculus) at 320 mg/kg subcutaneous dose
Assay type: functional
result type: MST (days)

                                    compound    target_or_system  result_type  unit_string  quantitative_result
 0  CCN1CCCC(Nc2nc(Nc3ccc(C(F)(F)F)cc3)c3ccccc3n2)C1 (configuration not stated)  Plasmodium berghei          MST         days                  0.9
 1  Clc1cc(Cl)cc(Nc2nc(NCCN3CCCC3)c3ccccc3n2)c1  Plasmodium berghei          MST         days                  5.9
 2  CCOc1ccc(Nc2nc(NCCN(CC)CC)c3cc(Cl)ccc3n2)cc1CN1CCCC1  Plasmodium berghei          MST         days                  7.8
 3  OC1CCCN(CCCNc2nc(Nc3ccc(Cl)cc3)nc3ccccc23)C1 (configuration not stated)  Plasmodium berghei          MST         days                 17.5
 4  CN1CCCC1CCNc1nc(Nc2cccc(Br)c2)nc2ccccc12 (configuration not stated)  Plasmodium berghei          MST         days                   15
 5  FC(F)(F)c1ccc(Nc2nc(NCCN3CCCC3)c3ccccc3n2)cc1  Plasmodium berghei          MST         days                 10.2
 6   Clc1ccc(Nc2nc(NCCN3CCCC3)c3ccccc3n2)cc1  Plasmodium berghei          MST         days                 18.2
 7  CCN1CCCC(Nc2nc(Nc3cc(Cl)cc(Cl)c3)nc3ccc(Cl)cc23)C1 (configuration not stated)  Plasmodium berghei          MST         days                  6.4
 8  CCN(CC)CCCC(C)Nc1nc(Nc2ccc(O)c(CN(CC)CC)c2)c2ccccc2n1 (configuration not stated)  Plasmodium berghei          MST         days                  7.4
 9  Clc1ccc(Nc2nc(NCCN3CCCC3)c3ccccc3n2)cc1Cl  Plasmodium berghei          MST         days                  9.3
10  CCN(CC)CCCC(C)Nc1nc(Nc2cc(Cl)cc(Cl)c2)c2ccccc2n1 (configuration not stated)  Plasmodium berghei          MST         days                  3.1
11  CCN(CC)CCCC(C)Nc1nc(Nc2cc(OC)c(OC)c(OC)c2)c2ccccc2n1 (configuration not stated)  Plasmodium berghei          MST         days                  0.5
